Data origin, for the record: the NIST ThermoML archive (doi:10.1021/je4003256)

# Experimental Conditions: 343.15 K; 101.33 kPa; Liquid; Vibrating tube method
Numbers after ± are expanded uncertainties.
Measured Parameter: mass density

-- ask Note down mass density recorded for C=CCc1ccc(O)c(OC)c1 [2-hydroxy-5-allylanisole]
-- reply 1022.15 ± 0.25 kg/m3

-- ask Note down mass density recorded for Cc1cccc(O)c1 [3-methylphenol]
-- reply 993.626 ± 0.23 kg/m3

-- ask Note down mass density recorded for Oc1ccccc1 [phenol]
-- reply 1032.4 ± 0.26 kg/m3

-- ask Note down mass density recorded for Cc1ccccc1O [2-methylphenol]
-- reply 1001.46 ± 0.23 kg/m3

-- ask Note down mass density recorded for Cc1ccc(O)cc1 [4-methylphenol]
-- reply 994.587 ± 0.83 kg/m3

-- ask Note down mass density recorded for COC(=O)c1ccccc1O [methyl 2-hydroxybenzoate]
-- reply 1134.49 ± 0.34 kg/m3

-- ask Note down mass density recorded for COc1ccccc1O [2-methoxyphenol]
-- reply 1085.02 ± 0.3 kg/m3

###

# Experimental Conditions: 308.15 K; 101.33 kPa; Liquid; Vibrating tube method
Exercise: for every item that follows, state its recorded mass density.
The reply should be a number in kg/m3, with the unit left off.

-- ask Note down mass density recorded for COC(=O)c1ccccc1O [methyl 2-hydroxybenzoate]
-- reply 1169.37

-- ask Note down mass density recorded for Cc1ccccc1O [2-methylphenol]
-- reply 1032.64

-- ask Note down mass density recorded for COc1ccccc1O [2-methoxyphenol]
-- reply 1119.25

-- ask Note down mass density recorded for Cc1cccc(O)c1 [3-methylphenol]
-- reply 1021.99

-- ask Note down mass density recorded for Cc1ccc(O)cc1 [4-methylphenol]
-- reply 1022.5

-- ask Note down mass density recorded for C=CCc1ccc(O)c(OC)c1 [2-hydroxy-5-allylanisole]
-- reply 1053.21

###

# Experimental Conditions: 323.15 K; 101.33 kPa; Liquid; Vibrating tube method
Exercise: for every item that follows, state its recorded mass density.
The reply should be a number in kg/m3, with the unit left off.

-- ask Note down mass density recorded for Cc1ccc(O)cc1 [4-methylphenol]
-- reply 1010.7

-- ask Note down mass density recorded for Cc1ccccc1O [2-methylphenol]
-- reply 1019.39

-- ask Note down mass density recorded for C=CCc1ccc(O)c(OC)c1 [2-hydroxy-5-allylanisole]
-- reply 1039.92

-- ask Note down mass density recorded for Cc1cccc(O)c1 [3-methylphenol]
-- reply 1009.97

-- ask Note down mass density recorded for COC(=O)c1ccccc1O [methyl 2-hydroxybenzoate]
-- reply 1154.42

-- ask Note down mass density recorded for Oc1ccccc1 [phenol]
-- reply 1049.81

-- ask Note down mass density recorded for COc1ccccc1O [2-methoxyphenol]
-- reply 1104.63

###

# Experimental Conditions: 328.15 K; 101.33 kPa; Liquid; Vibrating tube method
± gives the expanded uncertainty stated by the source.
Exercise: for every item that follows, state its recorded mass density.

-- ask Note down mass density recorded for COc1ccccc1O [2-methoxyphenol]
-- reply 1099.74 ± 0.31 kg/m3

-- ask Note down mass density recorded for C=CCc1ccc(O)c(OC)c1 [2-hydroxy-5-allylanisole]
-- reply 1035.48 ± 0.26 kg/m3

-- ask Note down mass density recorded for Cc1cccc(O)c1 [3-methylphenol]
-- reply 1005.91 ± 0.23 kg/m3

-- ask Note down mass density recorded for Oc1ccccc1 [phenol]
-- reply 1045.5 ± 0.27 kg/m3

-- ask Note down mass density recorded for COC(=O)c1ccccc1O [methyl 2-hydroxybenzoate]
-- reply 1149.45 ± 0.35 kg/m3

-- ask Note down mass density recorded for Cc1ccccc1O [2-methylphenol]
-- reply 1014.93 ± 0.24 kg/m3

-- ask Note down mass density recorded for Cc1ccc(O)cc1 [4-methylphenol]
-- reply 1006.72 ± 0.85 kg/m3
